# TARGET_UNDER_TEST: human uPAR displayed on the surface of MDA-MB-231 cells (human, UniProt Q03405 23-305)
# Sequence (Q03405 23-305): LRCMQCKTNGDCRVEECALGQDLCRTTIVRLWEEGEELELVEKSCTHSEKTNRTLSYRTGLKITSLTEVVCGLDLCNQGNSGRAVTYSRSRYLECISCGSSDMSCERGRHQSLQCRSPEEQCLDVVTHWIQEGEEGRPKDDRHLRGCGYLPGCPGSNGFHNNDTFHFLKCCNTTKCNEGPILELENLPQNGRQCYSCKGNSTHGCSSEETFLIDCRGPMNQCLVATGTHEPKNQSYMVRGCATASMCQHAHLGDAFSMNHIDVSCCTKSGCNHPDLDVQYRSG
# ASSAY: cell-based or functional assay
MEASUREMENT_TYPE: ADCC NK-92 Max % (%)
Unit % implied. Number only.

BINDER	UOM	MEASUREMENT
Antibody 3159 (antibody, human IgG1, V domains shown, Chimeric: mouse VH/VL linked to Herceptin (trastuzumab) human IgG1 / kappa constant regions) VH: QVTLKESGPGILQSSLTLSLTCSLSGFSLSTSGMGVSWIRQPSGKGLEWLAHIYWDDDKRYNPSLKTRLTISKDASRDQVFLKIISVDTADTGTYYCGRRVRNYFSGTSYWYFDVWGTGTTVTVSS VL: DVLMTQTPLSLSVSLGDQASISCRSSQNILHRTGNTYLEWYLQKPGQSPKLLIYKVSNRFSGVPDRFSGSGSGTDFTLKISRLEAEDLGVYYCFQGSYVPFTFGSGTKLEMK	%	28.2

stdin: Name the recorded ADCC NK-92 Max % for Antibody 11857 (antibody, human IgG1, V domains shown) VH: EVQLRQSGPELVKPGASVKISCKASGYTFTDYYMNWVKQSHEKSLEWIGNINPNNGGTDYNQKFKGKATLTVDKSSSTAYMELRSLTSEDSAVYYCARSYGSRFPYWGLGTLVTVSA VL: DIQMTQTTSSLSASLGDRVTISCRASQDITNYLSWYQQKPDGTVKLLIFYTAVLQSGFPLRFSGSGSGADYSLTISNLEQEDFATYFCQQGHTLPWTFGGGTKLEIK .
stdout: 27.2

stdin: Name the recorded ADCC NK-92 Max % for Antibody 8163 (antibody, human IgG1, V domains shown, Chimeric: mouse VH/VL linked to Herceptin (trastuzumab) human IgG1 / kappa constant regions) VH: EVQLVESGGGLVQPGESLTLSCDSNEFDFPSHDMSWVRKTPEKRLELVAAIDSDGGLTYYSNSRERRFIISRDNTKNTLYLQMRSLRSEDTALYYCARRRASYWYFDVWGTGTTVTVSS VL: DILLTQSPAILPVSPGERVSFSCRASQNIGTSIHWYQQRTNGSPRLLIKYASESISGIPSRFSGSGSGTDFTLSINGVESEDIGDYYCQQSNSWPTFGGGTKLEIK .
stdout: 18.8

stdin: Name the recorded ADCC NK-92 Max % for Antibody 3595 (antibody, human IgG1, V domains shown, Chimeric: mouse VH/VL linked to Herceptin (trastuzumab) human IgG1 / kappa constant regions) VH: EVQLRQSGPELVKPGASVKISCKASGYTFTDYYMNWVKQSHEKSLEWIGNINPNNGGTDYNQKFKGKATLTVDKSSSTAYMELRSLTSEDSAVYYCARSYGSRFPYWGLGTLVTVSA VL: DIQMTQTTSSLSASLGDRVTISCRASQDITNYLSWYQQKPDGTVKLLIFYTSFLQSGVPLRFSGSGSGADYSLTISNLEQEDFATYFCQQGHTLPWTFGGGTKLEIK .
stdout: 21.9
